Observation Type: melting point

Return reported melting point; argument: CCc1ccc2nc(-c3ccc(N)c(C)c3)sc2c1 [Formula 6h]
171 to 173 °C

Return reported melting point; argument: Nc1ccc(-c2nc3ccc(C(F)(F)F)cc3s2)cc1 [Formula 6f]
181 to 183 °C

Return reported melting point; argument: CCc1ccc2nc(-c3ccc(N)cc3)sc2c1 [Formula 6c, 2-(4-Aminophenyl)-6-ethylbenzothiazole]
154 to 156 °C

Return reported melting point; argument: Cc1cc(-c2nc3ccc(C(F)(F)F)cc3s2)ccc1N [Formula 6j]
152 to 154 °C

Return reported melting point; argument: COc1ccc2nc(-c3ccc(N)c(C)c3)sc2c1 [Formula 6i]
151 to 153 °C

Return reported melting point; argument: COc1cccc2nc(-c3ccc(N)cc3)sc12 [Formula 6d, 2-(4-Aminophenyl)-7-methoxybenzothiazole]
142 to 144 °C
